These data points were gathered from ChEMBL document CHEMBL3085716.

System: Mycolicibacterium smegmatis
Measurement Notes: Antimycobacterial activity against Mycobacterium smegmatis ATCC 700084 under normoxic condition after 72 hrs by MABA assay
Format: functional
Stated Conditions: ATCC 700084, 72 h
Each entry below carries its recorded MIC90.

[
  {
    "Smiles Data": "CC(C)C[C@@H]1NC(=O)[C@H]2CCCNN2C(=O)[C@H](C)N(C)C(=O)[C@H]2CCCNN2C(=O)[C@@H]2CCCNN2C(=O)[C@@H](C(C)C)NC1=O",
    "Bound Type": ">",
    "MIC90 / µg/mL": 10
  },
  {
    "Smiles Data": "CN[C@@H]1[C@H](O[C@H]2[C@H](O[C@H]3[C@H](O)[C@@H](O)[C@H](N=C(N)N)[C@@H](O)[C@@H]3N=C(N)N)O[C@@H](C)[C@]2(O)C=O)O[C@@H](CO)[C@H](O)[C@H]1O",
    "Bound Type": "=",
    "MIC90 / µg/mL": 0.1
  },
  {
    "Smiles Data": "CO[C@H]1/C=C/O[C@@]2(C)Oc3c(C)c(O)c4c(O)c(c(/C=N/N5CCN(C)CC5)c(O)c4c3C2=O)NC(=O)/C(C)=C\\C=C\\[C@H](C)[C@H](O)[C@@H](C)[C@@H](O)[C@@H](C)[C@H](OC(C)=O)[C@@H]1C",
    "Bound Type": "<",
    "MIC90 / µg/mL": 0.3
  },
  {
    "Smiles Data": "CC(C)/N=c1\\cc2n(-c3ccc(Cl)cc3)c3ccccc3nc-2cc1Nc1ccc(Cl)cc1",
    "Bound Type": "=",
    "MIC90 / µg/mL": 1.1
  },
  {
    "Smiles Data": "CC[C@H](C)[C@H]1NC(=O)[C@H](CC(C)C)NC(=O)[C@H]2CCCNN2C(=O)[C@H](C)N(C)C(=O)[C@H]2CCCNN2C(=O)[C@@H]2CCCNN2C1=O",
    "Bound Type": ">",
    "MIC90 / µg/mL": 10
  },
  {
    "Smiles Data": "NNC(=O)c1ccncc1",
    "Bound Type": "=",
    "MIC90 / µg/mL": 12.7
  }
]

----------
Tested on: Mycobacterium tuberculosis
Measurement Notes: Antimycobacterial activity against Mycobacterium tuberculosis clinical isolate X005319 under normoxic condition after 7 days by MABA assay
Assay type: functional
Stated Conditions: clinical isolate X005319, 168 h
Entries and their log10 of MIC90 values follow.
Measurement Label: log10 of MIC90 (log10 of the value in µg/mL)

[
  {
    "Smiles Data": "CC(C)C[C@@H]1NC(=O)[C@H]2CCCNN2C(=O)[C@H](C)N(C)C(=O)[C@H]2CCCNN2C(=O)[C@@H]2CCCNN2C(=O)[C@@H](C(C)C)NC1=O",
    "log10 of MIC90": 1.28
  },
  {
    "Smiles Data": "CO[C@H]1/C=C/O[C@@]2(C)Oc3c(C)c(O)c4c(O)c(c(/C=N/N5CCN(C)CC5)c(O)c4c3C2=O)NC(=O)/C(C)=C\\C=C\\[C@H](C)[C@H](O)[C@@H](C)[C@@H](O)[C@@H](C)[C@H](OC(C)=O)[C@@H]1C",
    "log10 of MIC90": -1.00
  },
  {
    "Smiles Data": "CN[C@@H]1[C@H](O[C@H]2[C@H](O[C@H]3[C@H](O)[C@@H](O)[C@H](N=C(N)N)[C@@H](O)[C@@H]3N=C(N)N)O[C@@H](C)[C@]2(O)C=O)O[C@@H](CO)[C@H](O)[C@H]1O",
    "log10 of MIC90": 0.00
  },
  {
    "Smiles Data": "CC[C@H](C)[C@H]1NC(=O)[C@H](CC(C)C)NC(=O)[C@H]2CCCNN2C(=O)[C@H](C)N(C)C(=O)[C@H]2CCCNN2C(=O)[C@@H]2CCCNN2C1=O",
    "log10 of MIC90": 0.68
  },
  {
    "Smiles Data": "NNC(=O)c1ccncc1",
    "log10 of MIC90": -0.05
  }
]

----------
System: Mycobacterium tuberculosis
Measurement Notes: Antimycobacterial activity against Mycobacterium tuberculosis clinical isolate X004244 under normoxic condition after 7 days by MABA assay
Type: functional
Stated Conditions: clinical isolate X004244, 168 h
Listing of recorded MIC90 by entry.
Measurement Label: MIC90

[
  {
    "Smiles Data": "CN[C@@H]1[C@H](O[C@H]2[C@H](O[C@H]3[C@H](O)[C@@H](O)[C@H](N=C(N)N)[C@@H](O)[C@@H]3N=C(N)N)O[C@@H](C)[C@]2(O)C=O)O[C@@H](CO)[C@H](O)[C@H]1O",
    "Observed Measurement": "0.3 µg/mL"
  },
  {
    "Smiles Data": "Cc1ncc([N+](=O)[O-])n1CCO",
    "Observed Measurement": "> 87.6 µg/mL"
  },
  {
    "Smiles Data": "CC[C@H](C)[C@H]1NC(=O)[C@H](CC(C)C)NC(=O)[C@H]2CCCNN2C(=O)[C@H](C)N(C)C(=O)[C@H]2CCCNN2C(=O)[C@@H]2CCCNN2C1=O",
    "Observed Measurement": "4.7 µg/mL"
  },
  {
    "Smiles Data": "CO[C@H]1/C=C/O[C@@]2(C)Oc3c(C)c(O)c4c(O)c(c(/C=N/N5CCN(C)CC5)c(O)c4c3C2=O)NC(=O)/C(C)=C\\C=C\\[C@H](C)[C@H](O)[C@@H](C)[C@@H](O)[C@@H](C)[C@H](OC(C)=O)[C@@H]1C",
    "Observed Measurement": "0.1 µg/mL"
  },
  {
    "Smiles Data": "NNC(=O)c1ccncc1",
    "Observed Measurement": "> 1.1 µg/mL"
  },
  {
    "Smiles Data": "CC(C)C[C@@H]1NC(=O)[C@H]2CCCNN2C(=O)[C@H](C)N(C)C(=O)[C@H]2CCCNN2C(=O)[C@@H]2CCCNN2C(=O)[C@@H](C(C)C)NC1=O",
    "Observed Measurement": "16.9 µg/mL"
  }
]

----------
Test system: Mycobacterium tuberculosis
Measurement Notes: Antimycobacterial activity against Mycobacterium tuberculosis H37Rv under normoxic condition after 7 days by MABA assay in presence of 4% bovine serum albumin
Format: functional
Stated Conditions: 168 h
Parameter: MIC90. Scope: all listed entries.
Measurement Label: MIC90

[
  {
    "Smiles Data": "CC(C)C[C@@H]1NC(=O)[C@H]2CCCNN2C(=O)[C@H](C)N(C)C(=O)[C@H]2CCCNN2C(=O)[C@@H]2CCCNN2C(=O)[C@@H](C(C)C)NC1=O",
    "Observed Measurement": "24.1 µg/mL"
  },
  {
    "Smiles Data": "Cc1ncc([N+](=O)[O-])n1CCO",
    "Observed Measurement": "> 87.6 µg/mL"
  },
  {
    "Smiles Data": "CN[C@@H]1[C@H](O[C@H]2[C@H](O[C@H]3[C@H](O)[C@@H](O)[C@H](N=C(N)N)[C@@H](O)[C@@H]3N=C(N)N)O[C@@H](C)[C@]2(O)C=O)O[C@@H](CO)[C@H](O)[C@H]1O",
    "Observed Measurement": "0.8 µg/mL"
  },
  {
    "Smiles Data": "NNC(=O)c1ccncc1",
    "Observed Measurement": "0.1 µg/mL"
  },
  {
    "Smiles Data": "CC[C@H](C)[C@H]1NC(=O)[C@H](CC(C)C)NC(=O)[C@H]2CCCNN2C(=O)[C@H](C)N(C)C(=O)[C@H]2CCCNN2C(=O)[C@@H]2CCCNN2C1=O",
    "Observed Measurement": "11.9 µg/mL"
  },
  {
    "Smiles Data": "CO[C@H]1/C=C/O[C@@]2(C)Oc3c(C)c(O)c4c(O)c(c(/C=N/N5CCN(C)CC5)c(O)c4c3C2=O)NC(=O)/C(C)=C\\C=C\\[C@H](C)[C@H](O)[C@@H](C)[C@@H](O)[C@@H](C)[C@H](OC(C)=O)[C@@H]1C",
    "Observed Measurement": "0.02 µg/mL"
  }
]

----------
Test system: Mycobacterium tuberculosis
Measurement Notes: Antimycobacterial activity against Mycobacterium tuberculosis clinical isolate X004439 under normoxic condition after 7 days by MABA assay
Format: functional
Stated Conditions: clinical isolate X004439, 168 h
Listed next: entries and their corresponding MIC90.

[
  {
    "Smiles Data": "CO[C@H]1/C=C/O[C@@]2(C)Oc3c(C)c(O)c4c(O)c(c(/C=N/N5CCN(C)CC5)c(O)c4c3C2=O)NC(=O)/C(C)=C\\C=C\\[C@H](C)[C@H](O)[C@@H](C)[C@@H](O)[C@@H](C)[C@H](OC(C)=O)[C@@H]1C",
    "Target Or System": "Mycobacterium tuberculosis",
    "Measurement Units": "µg/mL",
    "Bound Type": "=",
    "MIC90": 0.02
  },
  {
    "Smiles Data": "CN[C@@H]1[C@H](O[C@H]2[C@H](O[C@H]3[C@H](O)[C@@H](O)[C@H](N=C(N)N)[C@@H](O)[C@@H]3N=C(N)N)O[C@@H](C)[C@]2(O)C=O)O[C@@H](CO)[C@H](O)[C@H]1O",
    "Target Or System": "Mycobacterium tuberculosis",
    "Measurement Units": "µg/mL",
    "Bound Type": "=",
    "MIC90": 0.3
  },
  {
    "Smiles Data": "NNC(=O)c1ccncc1",
    "Target Or System": "Mycobacterium tuberculosis",
    "Measurement Units": "µg/mL",
    "Bound Type": "=",
    "MIC90": 0.1
  },
  {
    "Smiles Data": "Cc1ncc([N+](=O)[O-])n1CCO",
    "Target Or System": "Mycobacterium tuberculosis",
    "Measurement Units": "µg/mL",
    "Bound Type": ">",
    "MIC90": 87.6
  },
  {
    "Smiles Data": "CC(C)C[C@@H]1NC(=O)[C@H]2CCCNN2C(=O)[C@H](C)N(C)C(=O)[C@H]2CCCNN2C(=O)[C@@H]2CCCNN2C(=O)[C@@H](C(C)C)NC1=O",
    "Target Or System": "Mycobacterium tuberculosis",
    "Measurement Units": "µg/mL",
    "Bound Type": "=",
    "MIC90": 9.3
  },
  {
    "Smiles Data": "CC[C@H](C)[C@H]1NC(=O)[C@H](CC(C)C)NC(=O)[C@H]2CCCNN2C(=O)[C@H](C)N(C)C(=O)[C@H]2CCCNN2C(=O)[C@@H]2CCCNN2C1=O",
    "Target Or System": "Mycobacterium tuberculosis",
    "Measurement Units": "µg/mL",
    "Bound Type": "=",
    "MIC90": 4.4
  }
]
